Values compiled from paper PMC10484210.

# Assayed target: BcPurE (Burkholderia cenocepacia, UniProt B4EA21)
# Sequence (B4EA21 1-173): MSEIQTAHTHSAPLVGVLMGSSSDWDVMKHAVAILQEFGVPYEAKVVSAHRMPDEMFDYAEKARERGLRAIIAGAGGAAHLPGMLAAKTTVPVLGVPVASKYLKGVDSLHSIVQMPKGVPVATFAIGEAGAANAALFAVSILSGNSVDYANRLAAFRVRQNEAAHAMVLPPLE
Assay metric: IC50 (µM)
Give the number; µM is assumed, so skip it.

-- ask // fetch BcPurE (Burkholderia cenocepacia, UniProt B4EA21) IC50 for COc1cc2nc(N(C)CCCNC(=O)C3CCCO3)nc(N)c2cc1OC (stereo not shown) [Alfuzosin]
-- reply 47

* * *

# Assayed target: human PAICS (Homo sapiens, UniProt P22234)
# Sequence (P22234 whole entry): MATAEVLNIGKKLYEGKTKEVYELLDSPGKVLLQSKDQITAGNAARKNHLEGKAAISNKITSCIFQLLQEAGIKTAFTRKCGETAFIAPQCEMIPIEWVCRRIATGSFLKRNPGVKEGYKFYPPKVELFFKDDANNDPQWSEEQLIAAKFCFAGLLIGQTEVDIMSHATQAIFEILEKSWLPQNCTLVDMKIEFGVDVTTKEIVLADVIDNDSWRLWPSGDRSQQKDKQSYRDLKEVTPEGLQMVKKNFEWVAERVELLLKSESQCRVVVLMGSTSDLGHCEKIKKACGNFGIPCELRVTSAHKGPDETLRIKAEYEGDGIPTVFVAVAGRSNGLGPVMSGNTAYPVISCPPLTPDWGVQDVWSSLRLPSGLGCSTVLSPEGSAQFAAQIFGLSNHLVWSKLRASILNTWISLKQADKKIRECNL
# Assay type: biochemical
# Cond: two concentrations, 10 and 100 μM
Assay metric: inhibition of human PAICS decarboxylation activity

Worked cases, inhibition of human PAICS decarboxylation activity given:
{"Molecule": "COc1ccc(CN=c2[nH]c(N3CCC[C@H]3CO)ncc2C(=O)NCc2ncccn2)cc1Cl", "Observed value": "little or no inhibition"}
{"Molecule": "CCc1cc2c(cc1CC)CC(NC[C@H](O)c1ccc(O)c3[nH]c(=O)ccc13)C2", "Observed value": "do inhibit"}
{"Molecule": "CN(C)C/C=C/C(=O)Nc1cc2c(Nc3ccc(F)c(Cl)c3)ncnc2cc1O[C@H]1CCOC1", "Observed value": "do inhibit"}
{"Molecule": "CC(=O)N1CCN(c2ccc(OCC3COC(Cn4ccnc4)(c4ccc(Cl)cc4Cl)O3)cc2)CC1 (centres unmarked)", "Observed value": "little or no inhibition"}

API: the following record is the query input.
-- ask What value of inhibition of human PAICS decarboxylation activity has been recorded for this entry: COc1cc2nc(N(C)CCCNC(=O)C3CCCO3)nc(N)c2cc1OC (centres unmarked)
-- reply little or no inhibition
